B1: CHMP4C (parent)
chain: TNIRLPNVPSSSLPAQPNRKPGMS

Variants of: B1
assay.method.text: protein stability index of a GFP-peptide fusion (GPS, HEK-293T) (PSI 1-6); higher = more stable;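 further: lentivirally expressed fusions sorted by FACS into six bins by GFP to DsRed ratio, PSI derived from sequencing read proportions per bin multiplied by bin number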
condition: c terminus: a fixed tail appended
Assignment: determine reported protein stability index for the given variants.
Output spec: single numeric token, no unit.

The variant listed as S12L shows protein stability index equal to 3.44

Lookup result for T1S ; measured protein stability index: 4.4

According to the records, this variant L5I displays protein stability index of 4.61

Form: variant = M23Q ; protein stability index = 5.23

Measured protein stability index of N7I : 3.95

Per the record, T1I has protein stability index of 3.03

Entry under test: P14I . Its protein stability index was 4.22

// recorded protein stability index for P9W : 3.53

The reported protein stability index of the variant K20S was 4.56

The reported value for G22K in terms of protein stability index is 4.64

Consider P21A . Its measured protein stability index is 5

Measured protein stability index, Q16N : 4.73

// protein stability index value for S24E : 4.83

// protein stability index lookup, variant = G22Q , result: 4.88
